- Tested on: SARS-CoV-2
- protocol: Antiviral activity against SARS-CoV-2 infected in african green monkey Vero E6 cells pretreated for 1 hrs followed by viral infection for 2 hrs and replaced with fresh medium for 48 hrs post infection by qRT-PCR
- Format: functional, organism-based
- test parameters: Severe acute respiratory syndrome coronavirus 2, Vero C1008
measured endpoint: EC50 (nM)
// return numeric value only (unit: nM, not printed)

Return EC50 (reported value) for this compound: `CCC(CC)COC(=O)[C@H](C)N[P@](=O)(OC[C@H]1O[C@@](C#N)(c2ccc3c(N)ncnn23)[C@H](O)[C@@H]1O)Oc1ccccc1`
770
